Assignment: determine reported pKi for the given compounds.
Where a name gives a salt, the structure may show the parent alone.
The read-out pKi is expressed as -log10 of concentration in moles per litre.

So the reported pKi for Fc1cccc([C@H](Oc2c(F)cc(F)cc2F)[C@@H]2CNCCO2)c1 [Example 65, hydrochloride] , on human norepinephrine transporter (hNET) (Homo sapiens), turned out to be 7.80

So the reported pKi for COc1cc(Cl)ccc1O[C@@H](c1ccccn1)[C@@H]1CNCCO1 [Example 103, fumarate] , on human norepinephrine transporter (hNET) (Homo sapiens), turned out to be 7.89

So the reported pKi for COc1ccc(C)cc1O[C@@H](c1cccc(F)c1)[C@@H]1CNCCO1 [Example 51, hydrochloride] , on human norepinephrine transporter (hNET) (Homo sapiens), turned out to be 7.58

So the reported pKi for CCCc1ccccc1O[C@@H](c1cccc(F)c1)[C@@H]1CNCCO1 [Example 66, hydrochloride] , on human norepinephrine transporter (hNET) (Homo sapiens), turned out to be 7.70

====

Molecular target: human serotonin transporter (hSERT) (Homo sapiens)
Construct: expressed in transfected cells; host or cells: HEK-293, membranes
Test: hSERT receptor binding, [125I]-RTI-55, HEK-293 membranes
Details: [125I]-RTI-55, HEK-293 membranes, Cheng-Prusoff; read-out: SERT Ki
Counter-ions that a name gives are not always drawn.
Assignment: determine reported Ki for the given compounds.
Numbers only here, please. The scale is µM.

Field Ki (entry CCCc1ccccc1O[C@@H](c1cccc(F)c1)[C@@H]1CNCCO1 [Example 66, hydrochloride] ) reads 1.03

Field Ki (entry Cc1ccc(Cl)c(O[C@@H](c2ccccc2)[C@@H]2CNCCO2)c1 [Example 87, fumarate] ) reads 0.184

Field Ki (entry COc1cc(Cl)ccc1O[C@@H](c1ccccn1)[C@@H]1CNCCO1 [Example 103, fumarate] ) reads 0.101

Field Ki (entry COc1cccc([C@H](Oc2ccc(F)cc2Br)[C@@H]2CNCCO2)c1 [Example 70, hydrochloride] ) reads 0.111

====

Where a name gives a salt, the structure may show the parent alone.
VALUE TYPE: melting point
Give the number first and the unit second.

Field melting point (entry Fc1cc(Cl)ccc1OC(c1ccccc1)C1CNCCO1 (centres unmarked) (as salt: tartrate) ) reads 92.68 °C

Field melting point (entry Fc1cccc(OC(c2ccccc2)C2CNCCO2)c1F (centres unmarked) (as salt: fumarate) ) reads 119.96 °C

Field melting point (entry FC(F)Oc1cc(Cl)ccc1OC(c1ccccc1)C1CNCCO1 (centres unmarked) (as salt: citrate) ) reads 119.29 °C

Field melting point (entry COc1cc(Cl)ccc1OC(c1ccc(F)cc1)C1CNCCO1 (centres unmarked) (as salt: hydrochloride) ) reads 148.11 °C

Field melting point (entry Fc1ccc(OC(c2ccccc2)C2CNCCO2)c(F)c1 (centres unmarked) (as salt: hydrobromid) ) reads 106.48 °C

Field melting point (entry COc1cc(Cl)ccc1OC(c1cccc(F)c1)C1CNCCO1 (centres unmarked) (as salt: camsylate) ) reads 162.03 °C

Field melting point (entry Fc1c(Cl)cccc1OC(c1ccccc1)C1CNCCO1 (centres unmarked) (as salt: edisylate) ) reads 189.23 °C

Field melting point (entry c1ccc(C(Oc2cccc3cccnc23)C2CNCCO2)cc1 (centres unmarked) (as salt: succinate) ) reads 98.24 °C

====

Target: human serotonin transporter (hSERT) (Homo sapiens)
Construct: expressed in transfected cells; host or cells: HEK-293, membranes
Experiment: hSERT receptor binding, [125I]-RTI-55, HEK-293 membranes
Conditions: [125I]-RTI-55, HEK-293 membranes, Cheng-Prusoff; read-out: SERT Ki
Counter-ions that a name gives are not always drawn.
VALUE TYPE: pKi
The read-out pKi is expressed as -log10 of concentration in moles per litre.

Field pKi (entry Clc1ccc(Cl)c(O[C@@H](c2ccccc2)[C@@H]2CNCCO2)c1 [Example 89, fumarate] ) reads 6.77

Field pKi (entry COc1cccc([C@H](Oc2ccc(F)cc2Cl)[C@@H]2CNCCO2)c1 [Example 63, hydrochloride] ) reads 6.91

Field pKi (entry Clc1cccc(O[C@@H](c2ccccc2)[C@@H]2CNCCO2)c1Cl [Example 81, fumarate] ) reads 7.58

Field pKi (entry Fc1ccc(O[C@@H](c2ccccn2)[C@@H]2CNCCO2)c(Cl)c1 [Example 105, fumarate] ) reads 6.21

Field pKi (entry COc1cc(F)ccc1O[C@@H](c1cccc(F)c1)[C@@H]1CNCCO1 [Example 46, hydrochloride] ) reads 6.65

Field pKi (entry COc1cccc([C@H](Oc2ccc(F)cc2OC)[C@@H]2CNCCO2)c1 [Example 68, hydrochloride] ) reads 6.39

Field pKi (entry Fc1cccc([C@H](Oc2cccc(F)c2F)[C@@H]2CNCCO2)c1 [Example 39, hydrochloride] ) reads 6.85

Field pKi (entry Fc1cccc([C@H](Oc2cc(F)cc(F)c2Cl)[C@@H]2CNCCO2)c1 [Example 48, hydrochloride] ) reads 7.10

Field pKi (entry Clc1cc(Cl)c(O[C@@H](c2ccccc2)[C@@H]2CNCCO2)c(Cl)c1 [Example 98, fumarate] ) reads 7.30

Field pKi (entry COc1ccc(O[C@@H](c2cccc(C)c2)[C@@H]2CNCCO2)c(OC)c1 [Example 58, hydrochloride] ) reads 6.32

Field pKi (entry COc1cc(Br)ccc1O[C@@H](c1ccccc1)[C@@H]1CNCCO1 [Example 94, fumarate] ) reads 7.65

Field pKi (entry COc1ccc(O[C@@H](c2ccccn2)[C@@H]2CNCCO2)c(Cl)c1 [Example 106, fumarate] ) reads 6.67

Field pKi (entry Fc1ccc([C@H](Oc2ccc(F)cc2Cl)[C@@H]2CNCCO2)cc1 [Example 74, hydrochloride] ) reads 6.86

Field pKi (entry COc1cc(C)ccc1O[C@@H](c1ccccc1)[C@@H]1CNCCO1 [Example 40, hydrochloride] ) reads 6.80

Field pKi (entry COc1cc(C(F)(F)F)ccc1O[C@@H](c1ccccc1)[C@@H]1CNCCO1 [Example 99, fumarate] ) reads 7.45

Field pKi (entry COc1cc(F)ccc1O[C@@H](c1cccc(C)c1)[C@@H]1CNCCO1 [Example 57, hydrochloride] ) reads 6.26

====

Biological target: human serotonin transporter (hSERT) (Homo sapiens, UniProt P31645)
Construct: expressed in transfected cells; host or cells: HEK-293, membranes
Sequence (P31645 whole entry): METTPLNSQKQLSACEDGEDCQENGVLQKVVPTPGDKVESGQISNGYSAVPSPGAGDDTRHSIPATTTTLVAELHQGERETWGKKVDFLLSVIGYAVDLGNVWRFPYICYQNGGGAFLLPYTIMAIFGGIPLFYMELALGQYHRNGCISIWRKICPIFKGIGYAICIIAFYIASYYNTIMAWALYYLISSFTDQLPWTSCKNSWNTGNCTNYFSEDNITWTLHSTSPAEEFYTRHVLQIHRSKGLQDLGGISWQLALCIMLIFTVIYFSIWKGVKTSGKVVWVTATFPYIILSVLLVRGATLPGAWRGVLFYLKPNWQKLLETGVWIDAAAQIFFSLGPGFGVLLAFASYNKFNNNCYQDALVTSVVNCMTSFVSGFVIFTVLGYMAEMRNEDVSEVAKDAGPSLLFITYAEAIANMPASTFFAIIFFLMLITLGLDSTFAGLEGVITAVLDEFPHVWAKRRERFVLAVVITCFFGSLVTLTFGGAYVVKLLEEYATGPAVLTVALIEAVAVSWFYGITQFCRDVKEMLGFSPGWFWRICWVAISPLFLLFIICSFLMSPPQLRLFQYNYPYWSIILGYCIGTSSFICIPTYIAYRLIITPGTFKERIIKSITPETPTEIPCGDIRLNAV
Test: hSERT receptor binding, [125I]-RTI-55, HEK-293 membranes
Structures can show the parent of a compound that is named as a salt.
VALUE TYPE: Ki (nM)
Numbers only here, please. The scale is nM.

Field Ki (entry COc1cc(Cl)ccc1O[C@@H](c1cccc(F)c1)[C@@H]1CNCCO1 [Example 45, hydrochloride] ) reads 30

====

Target: human serotonin transporter (hSERT) (Homo sapiens, UniProt P31645)
Construct: expressed in transfected cells; host or cells: HEK-293, membranes
Experiment: hSERT receptor binding, [125I]-RTI-55, HEK-293 membranes
Details: [125I]-RTI-55, HEK-293 membranes, Cheng-Prusoff; read-out: SERT Ki
Counter-ions that a name gives are not always drawn.
VALUE TYPE: log10 of Ki (log10 of the value in µM)
Friendly reminder: values = log10 of Ki, unit µM.

Field log10 of Ki (entry COc1cc(C)ccc1O[C@H](c1ccc(F)cc1)[C@H]1CNCCO1 [Example 43, hydrochloride] ) reads -2.33

Field log10 of Ki (entry Fc1cccc([C@H](Oc2ccc(F)cc2F)[C@@H]2CNCCO2)c1 [Example 64, hydrochloride] ) reads -0.29

Field log10 of Ki (entry COc1c(Cl)cccc1O[C@@H](c1ccccc1)[C@@H]1CNCCO1 [Example 92, fumarate] ) reads -1.14

Field log10 of Ki (entry Fc1ccc(O[C@@H](c2cccc(Cl)c2)[C@@H]2CNCCO2)c(Cl)c1 [Example 102, fumarate] ) reads -0.65

Field log10 of Ki (entry Fc1cccc([C@H](Oc2c(F)cccc2F)[C@@H]2CNCCO2)c1 [Example 47, hydrochloride] ) reads -0.01

Field log10 of Ki (entry Fc1cccc([C@H](Oc2ccc(C(F)(F)F)cc2)[C@@H]2CNCCO2)c1 [Example 67, hydrochloride] ) reads -1.45

Field log10 of Ki (entry Fc1ccc(O[C@@H](c2ccc(Cl)cc2)[C@@H]2CNCCO2)c(Cl)c1 [Example 72, hydrochloride] ) reads -1.10

Field log10 of Ki (entry COc1cc(F)ccc1O[C@@H](c1cccc(Cl)c1)[C@@H]1CNCCO1 [Example 52, hydrochloride] ) reads -0.71

Field log10 of Ki (entry COc1cccc([C@H](Oc2ccc(C)cc2OC)[C@@H]2CNCCO2)c1 [Example 62, hydrochloride] ) reads -0.82

Field log10 of Ki (entry COc1cc(C)ccc1O[C@@H](c1cccc(C)c1)[C@@H]1CNCCO1 [Example 55, hydrochloride] ) reads -0.96

Field log10 of Ki (entry Cc1cccc([C@H](Oc2cc(F)ccc2Cl)[C@@H]2CNCCO2)c1 [Example 59, hydrochloride] ) reads -0.28

Field log10 of Ki (entry COc1ccc(O[C@@H](c2ccccc2)[C@@H]2CNCCO2)c(Cl)c1 [Example 96, fumarate] ) reads -1.33

Field log10 of Ki (entry Cc1cccc([C@H](Oc2ccc(F)cc2Cl)[C@@H]2CNCCO2)c1 [Example 56, hydrochloride] ) reads -0.82

Field log10 of Ki (entry Fc1c(F)c(F)c(O[C@@H](c2ccccc2)[C@@H]2CNCCO2)c(F)c1F [Example 85, fumarate] ) reads -0.41

Field log10 of Ki (entry Fc1cccc([C@H](Oc2cc(F)ccc2Cl)[C@@H]2CNCCO2)c1 [Example 41, hydrochloride] ) reads -0.90

Field log10 of Ki (entry Fc1cccc([C@H](Oc2c(F)cccc2Cl)[C@@H]2CNCCO2)c1 [Example 60, hydrochloride] ) reads -0.50

Data provenance is patent US20080161309A1.
